Hello, the source for this data is patent US12473293B2, in case you need it.

# target-system: GABAB receptor (Rattus norvegicus, UniProt O88871+Q9Z0U4)
# Sequence (O88871 41-940): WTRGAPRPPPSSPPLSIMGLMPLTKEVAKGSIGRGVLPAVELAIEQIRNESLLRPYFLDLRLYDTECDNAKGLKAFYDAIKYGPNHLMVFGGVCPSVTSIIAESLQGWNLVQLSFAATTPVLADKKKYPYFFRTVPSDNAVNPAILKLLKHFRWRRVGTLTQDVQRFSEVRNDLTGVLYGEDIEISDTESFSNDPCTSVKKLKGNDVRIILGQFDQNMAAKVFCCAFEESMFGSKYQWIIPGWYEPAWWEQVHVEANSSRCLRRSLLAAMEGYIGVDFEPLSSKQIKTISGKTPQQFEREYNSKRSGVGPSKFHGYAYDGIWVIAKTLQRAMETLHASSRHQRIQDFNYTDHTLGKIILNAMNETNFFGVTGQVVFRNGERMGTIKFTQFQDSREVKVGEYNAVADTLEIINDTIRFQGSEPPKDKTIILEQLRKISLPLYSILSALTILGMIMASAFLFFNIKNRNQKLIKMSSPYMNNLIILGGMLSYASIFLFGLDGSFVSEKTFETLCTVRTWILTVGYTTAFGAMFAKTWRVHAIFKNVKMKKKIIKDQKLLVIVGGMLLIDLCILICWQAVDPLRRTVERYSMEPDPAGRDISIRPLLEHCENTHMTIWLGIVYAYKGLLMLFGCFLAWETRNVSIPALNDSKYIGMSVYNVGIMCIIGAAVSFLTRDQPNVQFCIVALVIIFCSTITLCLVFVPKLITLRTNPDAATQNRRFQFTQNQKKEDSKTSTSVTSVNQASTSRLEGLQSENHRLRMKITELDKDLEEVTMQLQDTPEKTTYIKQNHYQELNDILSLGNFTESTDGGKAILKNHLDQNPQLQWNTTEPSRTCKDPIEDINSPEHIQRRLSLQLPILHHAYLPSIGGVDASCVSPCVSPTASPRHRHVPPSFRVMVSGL
# Sequence (Q9Z0U4 17-960 limits assumed): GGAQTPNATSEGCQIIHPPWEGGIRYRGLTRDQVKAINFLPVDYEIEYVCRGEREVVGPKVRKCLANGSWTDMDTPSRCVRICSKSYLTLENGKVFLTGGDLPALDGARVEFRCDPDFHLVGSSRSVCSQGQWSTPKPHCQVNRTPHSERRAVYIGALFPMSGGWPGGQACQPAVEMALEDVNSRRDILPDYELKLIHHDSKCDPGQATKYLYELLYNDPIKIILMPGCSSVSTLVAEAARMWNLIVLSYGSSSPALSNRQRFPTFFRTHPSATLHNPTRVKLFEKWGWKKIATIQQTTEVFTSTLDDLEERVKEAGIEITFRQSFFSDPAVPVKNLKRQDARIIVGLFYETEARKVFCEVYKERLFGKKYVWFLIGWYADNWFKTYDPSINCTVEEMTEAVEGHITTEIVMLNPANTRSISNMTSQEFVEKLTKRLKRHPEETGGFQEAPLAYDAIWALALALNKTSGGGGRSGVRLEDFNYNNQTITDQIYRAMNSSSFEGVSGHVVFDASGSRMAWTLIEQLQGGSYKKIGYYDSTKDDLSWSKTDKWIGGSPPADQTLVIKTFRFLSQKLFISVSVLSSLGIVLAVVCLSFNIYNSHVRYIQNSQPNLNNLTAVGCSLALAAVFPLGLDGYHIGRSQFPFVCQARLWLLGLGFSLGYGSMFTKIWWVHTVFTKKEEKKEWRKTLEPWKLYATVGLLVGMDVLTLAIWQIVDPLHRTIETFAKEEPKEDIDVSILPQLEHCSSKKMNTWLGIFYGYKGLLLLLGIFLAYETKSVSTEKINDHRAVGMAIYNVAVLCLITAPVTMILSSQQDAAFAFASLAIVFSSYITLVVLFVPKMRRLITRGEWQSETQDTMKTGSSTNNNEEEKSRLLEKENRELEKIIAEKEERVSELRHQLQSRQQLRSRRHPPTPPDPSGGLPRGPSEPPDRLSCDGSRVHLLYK
# test-method-notes: In vitro [35S]GTPγS binding assay in rat cortical membranes
# reported-conditions: PAM EC50, [35S]GTPγS binding, read-out: In vitro PAM potency
Record form. Attribute: EC50. Fill in for each entry.

Example molecules with recorded EC50:
• CCc1c(C)nc2cc([C@H]3CC[C@H](C(F)(F)F)CC3)nn2c1[C@@H]1CCCN(C(C)=O)C1 = 100 to 1000 nM
• Cc1cc([C@]2(C)CCCN(S(N)(=O)=O)C2)n2nc([C@H]3CC[C@H](C(F)(F)F)CC3)cc2n1 = 1000 to 10000 nM
• COC(=O)N1C[C@@H](c2cc(C)nc3cc([C@H]4CC[C@H](C(F)(F)F)CC4)nn23)OC[C@@H]1C = 1000 to 10000 nM
• CCc1c(C)nc2cc([C@H]3CC[C@H](C(F)(F)F)CC3)nn2c1[C@@]1(C)CCCN(C(C)=O)C1 = < 100 nM
• CC(=O)N1CCC[C@H](c2c(C)c(C)nc3cc([C@H]4CC[C@H](C(F)(F)F)CC4)nn23)C1 = 100 to 1000 nM
• COC(=O)N1C[C@@H](c2cc(C)nc3cc([C@H]4CC[C@H](C(F)(F)F)CC4)nn23)OC[C@H]1C = 1000 to 10000 nM

Now turn to the next molecule.
input: Find the recorded EC50 belonging to `CCOC(=O)N1CCO[C@@H](c2cc(C)nc3cc([C@H]4CC[C@H](C(F)(F)F)CC4)nn23)C1` and report it.
output: 100 to 1000 nM

###

# target-system: GABAB receptor (Rattus norvegicus, UniProt O88871+Q9Z0U4)
# test-method-notes: In vitro [35S]GTPγS binding assay in rat cortical membranes
# reported-conditions: PAM EC50, [35S]GTPγS binding, read-out: In vitro PAM potency
# Experimental: In Vitro [^35S]GTPγS Binding Assay in Rat Cortical Membranes Cortices of freshly harvested rat brains were dissected on an ice-cold surface and homogenized by a glass Dounce homogeniser immediately in ice-cold buffer containing 50 mM Tris, 5 mM MgCl2 and 1 mM EDTA (pH=7.6). […] Nonspecific binding was determined in the presence of 10 μM GTPγS; basal binding was determined in the presence of buffer only. […] In Table 1 compounds of this invention measured in the [^35S]GTPγS binding assay are listed.
pEC50: −log10 of the molar value.
Record form. Attribute: pEC50. Fill in for each entry.

Example compounds with recorded pEC50:
• COC(=O)N1CCO[C@H](c2cc(C)nc3cc([C@H]4CC[C@H](C(F)(F)F)CC4)nn23)C1 = 5.00 to 6.00
• COC(=O)N1CCO[C@@H](c2cc(C)nc3cc([C@H]4CC[C@H](C(F)(F)F)CC4)nn23)C1 = > 7.00
• COC(=O)N1CCO[C@@H](c2cc(C)nc3c(F)c([C@H]4CC[C@H](C(F)(F)F)CC4)nn23)C1 = > 7.00
• Cc1cc([C@H]2CN(C(=O)N(C)C)CCO2)n2nc([C@H]3CC[C@H](C(F)(F)F)CC3)cc2n1 = 6.00 to 7.00
• Cc1cc([C@H]2CN(C(=O)c3cscn3)CCO2)n2nc([C@H]3CC[C@H](C(F)(F)F)CC3)cc2n1 = 6.00 to 7.00

Dear colleague, could you send me pEC50 for each of the items below? Thanks.
1. Cc1cc([C@@H]2CN(C=O)CC[C@@H]2C)n2nc([C@H]3CC[C@H](C(F)(F)F)CC3)cc2n1 (racemic) [Example 160]
2. CCc1c(C)nc2cc([C@H]3CC[C@H](C(F)(F)F)CC3)nn2c1[C@]1(C)CCCN(C(C)=O)C1

output:
["6.00 to 7.00", "> 7.00"]

###

Record form. Attribute: EC50. Fill in for each entry.
# target-system: GABAB receptor (Rattus norvegicus, UniProt O88871+Q9Z0U4)
# test-method-notes: In vitro [35S]GTPγS binding assay in rat cortical membranes
# reported-conditions: PAM EC50, [35S]GTPγS binding, read-out: In vitro PAM potency

- COC(=O)N1CC[C@H](C)[C@@H](c2cc(C)nc3c(F)c([C@H]4CC[C@H](C(F)(F)F)CC4)nn23)C1: 100 to 1000 nM

Dear colleague, could you send me EC50 for each of the items below? Thanks.
1. Cc1cc([C@H]2CN(S(C)(=O)=O)CCO2)n2nc([C@H]3CC[C@H](C(F)(F)F)CC3)cc2n1
2. Cc1cc(C2(C)CN(C=O)CC(F)(F)C2)n2nc([C@H]3CC[C@H](C(F)(F)F)CC3)cc2n1 (stereo partly shown)
3. Cc1nc2cc([C@H]3CC[C@H](C(F)(F)F)CC3)nn2c(C2CN(C=O)CC(F)(F)C2)c1C (stereo partly shown)
4. Cc1nc2cc([C@H]3CC[C@H](C(F)(F)F)CC3)nn2c([C@@H]2CN(C)CC[C@@H]2C)c1C (racemic)
5. Cc1cc([C@H]2CN(C(=O)c3cnco3)CCO2)n2nc([C@H]3CC[C@H](C(F)(F)F)CC3)cc2n1
6. CCc1c(C)nc2cc([C@H]3CC[C@H](C(F)(F)F)CC3)nn2c1[C@]1(C)CCCN(S(C)(=O)=O)C1

output:
["100 to 1000 nM", "100 to 1000 nM", "< 100 nM", "1000 to 10000 nM", "100 to 1000 nM", "< 100 nM"]

###

Record form. Attribute: EC50. Fill in for each entry.
# target-system: GABAB receptor (Rattus norvegicus, UniProt O88871+Q9Z0U4)
# test-method-notes: In vitro [35S]GTPγS binding assay in rat cortical membranes
# reported-conditions: PAM EC50, [35S]GTPγS binding, read-out: In vitro PAM potency

* COC(=O)N1C[C@@H](c2cc(C)nc3cc([C@H]4CC[C@H](C(F)(F)F)CC4)nn23)OC[C@@H]1C(C)C | 100 to 1000 nM
* Cc1cc(C2CN(C=O)CCC2(C)C)n2nc([C@H]3CC[C@H](C(F)(F)F)CC3)cc2n1 (stereo partly drawn) | 100 to 1000 nM

Dear colleague, could you send me EC50 for each of the items below? Thanks.
1. COC(=O)N1CC[C@H](C)[C@@H](c2cc(C)nc3cc([C@H]4CC[C@H](C(F)(F)F)CC4)nn23)C1 (racemic) [Example 159]
2. CC(=O)N1CCC[C@@](C)(c2c(C)c(C)nc3cc([C@H]4CC[C@H](C(F)(F)F)CC4)nn23)C1
3. CCC1CCN(C(=O)OC)CC1c1cc(C)nc2cc([C@H]3CC[C@H](C(F)(F)F)CC3)nn12 (stereo partly drawn)

output:
100 to 1000 nM
100 to 1000 nM
100 to 1000 nM

input: Find the recorded EC50 belonging to `Cc1nc2cc([C@H]3CC[C@H](C(F)(F)F)CC3)nn2c([C@@H]2CCCN(C(=O)CN)C2)c1C` and report it.
output: 1000 to 10000 nM

###

# target-system: GABAB receptor (Rattus norvegicus, UniProt O88871+Q9Z0U4)
# Construct: from tissue; host or cells: rat brain cortex membranes
# test-method-notes: In vitro [35S]GTPγS binding assay in rat cortical membranes
# Format: biochemical
# reported-conditions: PAM EC50, [35S]GTPγS binding, read-out: In vitro PAM potency
quantity-kind: EC50

Example compounds with recorded EC50:
• Cc1cc([C@@H]2CCCN(C(C)C)C2)n2nc([C@H]3CC[C@H](C(F)(F)F)CC3)cc2n1 = 1000 to 10000 nM
• CC(=O)N1CCCC(CF)(c2cc(C)nc3cc([C@H]4CC[C@H](C(F)(F)F)CC4)nn23)C1 (stereo partly shown) = 100 to 1000 nM
• COC(=O)N1CC(c2c(C)c(C)nc3cc([C@H]4CC[C@H](C(F)(F)F)CC4)nn23)CC(F)(F)C1 (stereo partly shown) = 100 to 1000 nM

input: Find the recorded EC50 belonging to `Cc1cc([C@]2(C)CCCN(CC#N)C2)n2nc([C@H]3CC[C@H](C(F)(F)F)CC3)cc2n1` and report it.
output: 100 to 1000 nM

###

# target-system: GABAB receptor (Rattus norvegicus, UniProt O88871+Q9Z0U4)
# test-method-notes: In vitro [35S]GTPγS binding assay in rat cortical membranes
# reported-conditions: PAM EC50, [35S]GTPγS binding, read-out: In vitro PAM potency
pEC50: −log10 of the molar value. Structures can show the parent of a compound that is named as a salt.
Record form. Attribute: pEC50. Fill in for each entry.

Example molecules with recorded pEC50:
• COC(=O)N1CC[C@@H](C)[C@H](c2cc(C)nc3cc([C@H]4CC[C@H](C(F)(F)F)CC4)nn23)C1 (single isomer, unassigned) = > 7.00
• Cc1cc([C@@H]2CCCS(=O)(=O)C2)n2nc([C@H]3CC[C@H](C(F)(F)F)CC3)cc2n1 = 6.00 to 7.00
• Cc1cc([C@@H]2CCCN(C(=O)N3CCOCC3)C2)n2nc([C@H]3CC[C@H](C(F)(F)F)CC3)cc2n1 = 5.00 to 6.00

Dear colleague, could you send me pEC50 for each of the items below? Thanks.
1. Cc1cc([C@@H]2CCCN(C(=N)N)C2)n2nc([C@H]3CC[C@H](C(F)(F)F)CC3)cc2n1 [Example 23, hydrochloride]
2. Cc1cc([C@H]2CN(C=O)CCO2)n2nc([C@H]3CC[C@H](C(F)(F)F)CC3)cc2n1
3. Cc1cc(C2CN(C=O)CCS2(=O)=O)n2nc([C@H]3CC[C@H](C(F)(F)F)CC3)cc2n1 (stereo partly shown)
4. Cc1cc([C@@H]2CN(C=O)C(C)(C)CO2)n2nc([C@H]3CC[C@H](C(F)(F)F)CC3)cc2n1 (single isomer, unassigned)

output:
6.00 to 7.00
6.00 to 7.00
≤ 5.00
5.00 to 6.00
